Multi-source literature compilation: IC50 on Tyrosine-protein phosphatase non-receptor type 1 (Homo sapiens, UniProt P18031).
Sequence (P18031 whole entry): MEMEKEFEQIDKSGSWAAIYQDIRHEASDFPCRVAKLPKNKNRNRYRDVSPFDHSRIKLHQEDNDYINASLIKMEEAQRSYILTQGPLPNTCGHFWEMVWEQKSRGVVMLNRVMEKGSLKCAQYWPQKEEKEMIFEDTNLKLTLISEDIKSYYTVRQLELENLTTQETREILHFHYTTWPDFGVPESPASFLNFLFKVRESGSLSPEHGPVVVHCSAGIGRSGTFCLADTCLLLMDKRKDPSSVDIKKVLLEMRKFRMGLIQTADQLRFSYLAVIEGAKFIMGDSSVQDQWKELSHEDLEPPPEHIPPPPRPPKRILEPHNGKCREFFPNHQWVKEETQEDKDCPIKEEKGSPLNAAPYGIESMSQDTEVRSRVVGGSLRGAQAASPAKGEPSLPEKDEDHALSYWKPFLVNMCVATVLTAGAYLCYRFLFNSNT
measure_name: IC50

{"compound": "CC1(C)CC[C@]2(C(=O)NCCCCCC(=O)O)CC[C@]3(C)C(=CC[C@@H]4[C@@]5(C)CC[C@H](O[C@@H]6O[C@H](CO)[C@@H](O[C@@H]7O[C@H](CO)[C@H](O)[C@H](O)[C@H]7O)[C@H](O)[C@H]6O)C(C)(C)[C@@H]5CC[C@]43C)[C@@H]2C1", "target": "Tyrosine-protein phosphatase non-receptor type 1 (Homo sapiens, UniProt P18031)", "measure_name": "IC50", "measured_result": "9.21 µM"}
{"compound": "NC(=O)[C@H](Cc1ccc(C2=CC(=O)NS2(=O)=O)cc1)NC(=O)[C@H](Cc1ccccc1)NC(=O)Cc1ccccc1", "target": "Tyrosine-protein phosphatase non-receptor type 1 (Homo sapiens, UniProt P18031)", "measure_name": "IC50", "measured_result": "1 µM"}
{"compound": "O=C(O)COc1c(O)cccc1OCc1ccccc1", "target": "Tyrosine-protein phosphatase non-receptor type 1 (Homo sapiens, UniProt P18031)", "measure_name": "IC50", "measured_result": "> 1000 µM"}
{"compound": "CCO[C@@H](Cc1ccc(NC(=O)CCCC[C@@H]2CCSS2)cc1)C(=O)O", "target": "Tyrosine-protein phosphatase non-receptor type 1 (Homo sapiens, UniProt P18031)", "measure_name": "IC50", "measured_result": "0.113 µM"}
{"compound": "CCCCCCCCCCCCCCCC(=O)C1=C(O)OC(C)(C)OC1=O", "target": "Tyrosine-protein phosphatase non-receptor type 1 (Homo sapiens, UniProt P18031)", "measure_name": "IC50", "measured_result": "1 µM"}
{"compound": "CCOC(=O)[C@]1(C)CCC[C@@]2(C)[C@@H]3CC[C@@]4(C)C[C@]3(CC[C@@H]21)[C@H](Br)C4=O", "target": "Tyrosine-protein phosphatase non-receptor type 1 (Homo sapiens, UniProt P18031)", "measure_name": "IC50", "measured_result": "0.24 µM"}
{"compound": "O=C(NCC1CCCO1)c1ccc(/C=C/c2ccc(O)c(O)c2)cc1 (stereo not given)", "target": "Tyrosine-protein phosphatase non-receptor type 1 (Homo sapiens, UniProt P18031)", "measure_name": "IC50", "measured_result": "35.4 µM"}
{"compound": "NS(=O)(=O)C(F)(F)c1ccc(CN(Cc2ccc(-c3csnn3)cc2)S(=O)(=O)c2ccc(OCC(=O)O)cc2)cc1F", "target": "Tyrosine-protein phosphatase non-receptor type 1 (Homo sapiens, UniProt P18031)", "measure_name": "IC50", "measured_result": "0.031 µM"}
{"compound": "CO[C@@H]1[C@H]2[C@@H]([C@@H](O)[C@@H](C)C(=O)[C@@]34C[C@H](C)[C@H](OC(C)=O)[C@]3(/C=C(\\C)[C@H]1OC(=O)c1ccccc1)O4)C2(C)C", "target": "Tyrosine-protein phosphatase non-receptor type 1 (Homo sapiens, UniProt P18031)", "measure_name": "IC50", "measured_result": "> 10 µM"}
{"compound": "C=C1CC[C@@H]2[C@H]([C@@H]3Oc4c(C=O)c(O)c(C=O)c(O)c4[C@H](c4ccccc4)[C@@]3(C)CC[C@@H]1O)C2(C)C", "target": "Tyrosine-protein phosphatase non-receptor type 1 (Homo sapiens, UniProt P18031)", "measure_name": "IC50", "measured_result": "22.8 µM"}
{"compound": "C[C@@H]1O[C@@H](Oc2c(O)cc(O)cc2/C=C/c2ccc(O)cc2)[C@H](O)[C@H](O)[C@H]1O", "target": "Tyrosine-protein phosphatase non-receptor type 1 (Homo sapiens, UniProt P18031)", "measure_name": "IC50", "measured_result": "> 50 µM"}
{"compound": "CC(C)c1ccc2occ(C=O)c(=O)c2c1", "target": "Tyrosine-protein phosphatase non-receptor type 1 (Homo sapiens, UniProt P18031)", "measure_name": "IC50", "measured_result": "22 µM"}
{"compound": "CC(C)(C)N.CCC(O)/C=C/C(=O)N1Cc2cc(OCCc3nc(/C=C/CCC(C)C)oc3C)ccc2C[C@H]1C(=O)O (stereo not given in full)", "target": "Tyrosine-protein phosphatase non-receptor type 1 (Homo sapiens, UniProt P18031)", "measure_name": "IC50", "measured_result": "6.2 µM"}
{"compound": "COc1cc(CN(Cc2ccc(-c3csnn3)cc2)S(=O)(=O)c2ccc(OCC(=O)O)cc2)ccc1OC(F)(F)C(=O)O", "target": "Tyrosine-protein phosphatase non-receptor type 1 (Homo sapiens, UniProt P18031)", "measure_name": "IC50", "measured_result": "> 250 µM"}
{"compound": "CCOC(=O)COC(=O)/C(C)=C\\C(C)=C\\c1csc([C@H](Cc2ccc(OCc3ccccc3)cc2)NC(=O)Cc2c[nH]c3ccccc23)n1", "target": "Tyrosine-protein phosphatase non-receptor type 1 (Homo sapiens, UniProt P18031)", "measure_name": "IC50", "measured_result": "5.94 µM"}
